- Test system: NCI-H23
- Assay: Growth inhibition of human NCI-H23 cells at 10 uM after 48 hrs by sulforhodamine B assay
- Format: functional, cell-based
The source made the active and inactive calls. No cut-off for these calls is given here.
Observed property: growth inhibition (GI)

COc1ccc2ccc(=O)oc2c1C1=NN(c2ccc(S(N)(=O)=O)cc2)C(c2ccc(C)o2)C1 (centres undefined)
inactive
COc1ccc2ccc(=O)oc2c1C1=NN(S(=O)(=O)c2ccccc2)C(c2ccc(SC)cc2)C1 (centres undefined)
inactive
COc1ccc2ccc(=O)oc2c1C1=NN(S(=O)(=O)c2ccccc2)C(c2ccc(C)o2)C1 (centres undefined)
inactive
COc1ccc2ccc(=O)oc2c1C1=NN(S(=O)(=O)c2ccccc2)C(c2cccs2)C1 (centres undefined)
inactive
